target: Tubulin (Homo sapiens) (UniProt P68371+Q9H4B7+P0DPH7+P68366+Q13509+Q71U36+P04350+Q3ZCM7+P07437+P68363+Q9BQE3+Q6PEY2+Q13885+Q9BVA1+Q9BUF5); assay: Inhibition of [3H]colchicine binding to tubulin (unknown origin) at 5 uM incubated for 10 mins by DEAE-cellulose filter method relative to control; assay type: protein-complex assay
endpoint: inhibition (%)

(P) COc1cc(C(=O)c2cn(-c3ccc(F)cc3)cc2-c2ccc([N+](=O)[O-])cc2)cc(OC)c1OC
(Q) COc1cc(C(=O)c2cn(-c3ccccc3)cc2-c2ccccc2Cl)cc(OC)c1OC
(R) COc1cc(C(=O)c2cn(-c3cccc(N)c3)cc2-c2ccccc2[N+](=O)[O-])cc(OC)c1OC
Req: Returns the items ordered by inhibition, from maximum to minimum. Put the labels in the order asked and list them.
Resp: R, Q, P
(R: 82%, Q: 50%, P: 0%)

(1) COc1cc(C(=O)c2cn(-c3cccc(C)c3)cc2-c2ccc(N)cc2)cc(OC)c1OC
(2) COc1cc(C(=O)c2cn(-c3ccc(C)cc3)cc2-c2ccc([N+](=O)[O-])cc2)cc(OC)c1OC
Req: Please indicate which entry, 1 or 2 , has the lower recorded inhibition value. Give the chosen item's label as your response.
Resp: 2

(a) COc1cccc(-c2cn(-c3ccccc3)cc2C(=O)c2cc(OC)c(OC)c(OC)c2)c1
(b) COc1cc(C(=O)c2cn(-c3cccc(C)c3)cc2-c2cccc([N+](=O)[O-])c2)cc(OC)c1OC
Req: Higher inhibition between a and b ? Mark your answer with the label of the selected entry.
Resp: a

(I) COc1cc(C(=O)c2cn(-c3ccc(C)cc3)cc2-c2cccc(N)c2)cc(OC)c1OC
(II) COc1cc(C(=O)c2cn(-c3cccc([N+](=O)[O-])c3)cc2-c2ccccc2)cc(OC)c1OC
Req: Recorded inhibition values differ for I and II ; which one is higher? The response must carry the label of the picked entry.
Resp: I
(I: 88%, II: 12%)

(I) COc1cc(C(=O)c2cn(-c3cccc(N)c3)cc2-c2ccc(N)cc2)cc(OC)c1OC
(II) COc1cc(C(=O)c2cn(-c3ccccc3)cc2-c2ccccc2C)cc(OC)c1OC
Req: For the pair I and II , which member has the lower inhibition number? Indicate which entry you chose by stating its label.
Resp: II
(II: 18%, I: 92%)

(I) COc1cc(C(=O)c2cn(-c3cccc(C)c3)cc2-c2ccc([N+](=O)[O-])cc2)cc(OC)c1OC
(II) COc1ccccc1-c1cn(-c2ccccc2)cc1C(=O)c1cc(OC)c(OC)c(OC)c1
(III) COc1cc(C(=O)c2cn(-c3ccc(N)cc3)cc2-c2ccccc2Cl)cc(OC)c1OC
(IV) COc1cc(C(=O)c2cn(-c3ccc(C)cc3)cc2-c2ccc(N)cc2)cc(OC)c1OC
Req: Arrange the 4 entries by inhibition so the values rise. // respond by listing labels in the order requested
Resp: I, II, III, IV
(I: 10%, II: 31%, III: 65%, IV: 95%)

(1) COc1ccccc1-n1cc(C(=O)c2cc(OC)c(OC)c(OC)c2)c(-c2ccccc2)c1
(2) COc1cc(C(=O)c2cn(-c3ccc(N)cc3)cc2-c2ccccc2F)cc(OC)c1OC
Req: Please indicate which item has the smaller measured inhibition: 1 versus 2 Refer to your chosen item by its label in the answer.
Resp: 1
(1: 22%, 2: 79%)

* * *

tested on: T98G; assay: Cytotoxicity against human T98G cells assessed as reduction in cell viability incubated for 48 hrs by MTS assay; format: functional, cell-based
Entries and their measured Emax follow.
Give the quantity in %, number only.

Previously resolved entries follow.
structureassmiles=COc1cc(C(=O)c2cn(-c3ccc(N)cc3)cc2-c2ccc(N)cc2)cc(OC)c1OC scaleunit=% readoutnumber=36.2
structureassmiles=COc1cc(C(=O)c2cn(-c3cccc(N)c3)cc2-c2ccccc2[N+](=O)[O-])cc(OC)c1OC scaleunit=% readoutnumber=26.7
structureassmiles=COc1cc(C(=O)c2cn(-c3ccc(F)cc3)cc2-c2ccc(N)cc2)cc(OC)c1OC scaleunit=% readoutnumber=31
structureassmiles=COc1cc(C(=O)c2cn(-c3cccc(N)c3)cc2-c2ccc(N)cc2)cc(OC)c1OC scaleunit=% readoutnumber=41.3

Could you now consider this next compound?
Recorded Emax (compound "COc1cc(C(=O)c2cn(-c3cccc(N)c3)cc2-c2ccccc2F)cc(OC)c1OC" ): 38.4

* * *

assay: Cytotoxicity against human SK-N-BE(2)C cells assessed as reduction in cell viability incubated for 48 hrs by MTT assay; type: functional, cell-based
endpoint: pIC50
Scale for pIC50: -log10 of concentration given in mol/L; no unit attached.

In the examples that follow, each entry is paired with its recorded pIC50.
structureassmiles=COc1cc(C(=O)c2cn(-c3cccc(N)c3)cc2-c2ccc(N)cc2)cc(OC)c1OC endpoint=pIC50 readoutnumber=7.25
structureassmiles=COc1cc(C(=O)c2cn(-c3cccc(N)c3)cc2-c2ccccc2F)cc(OC)c1OC endpoint=pIC50 readoutnumber=6.97
structureassmiles=COc1cc(C(=O)c2cn(-c3cccc(N)c3)cc2-c2ccccc2[N+](=O)[O-])cc(OC)c1OC endpoint=pIC50 readoutnumber=6.88
structureassmiles=COc1cc(C(=O)c2cn(-c3ccc(N)cc3)cc2-c2ccc(N)cc2)cc(OC)c1OC endpoint=pIC50 readoutnumber=6.83

From here, focus on the item given below.
Entry "COc1cc(C(=O)c2cn(-c3ccc(F)cc3)cc2-c2ccc(N)cc2)cc(OC)c1OC" — recorded pIC50 = 6.75

* * *

target: Tubulin (Homo sapiens) (UniProt P68371+Q9H4B7+P0DPH7+P68366+Q13509+Q71U36+P04350+Q3ZCM7+P07437+P68363+Q9BQE3+Q6PEY2+Q13885+Q9BVA1+Q9BUF5); test: Inhibition of [3H]colchicine binding to tubulin (unknown origin) at 5 uM incubated for 10 mins by DEAE-cellulose filter method relative to control; format: protein-complex assay
endpoint: inhibition (%)

Here are 6 compounds together with their reported answers.
structureassmiles=COc1cc(C(=O)c2cn(-c3cccc(C)c3)cc2-c2ccccc2F)cc(OC)c1OC readoutnumber=57
structureassmiles=COc1cc(C(=O)c2cn(-c3cccc(Cl)c3)cc2-c2ccccc2)cc(OC)c1OC readoutnumber=37
structureassmiles=COc1cc(C(=O)c2cn(-c3ccc(N)cc3)cc2-c2cccc(N)c2)cc(OC)c1OC readoutnumber=59
structureassmiles=COc1cc(C(=O)c2cn(-c3ccccc3)cc2-c2ccccc2Br)cc(OC)c1OC readoutnumber=39
structureassmiles=COc1cc(C(=O)c2cn(-c3ccc(C)cc3)cc2-c2ccccc2Cl)cc(OC)c1OC readoutnumber=70
structureassmiles=COc1cc(C(=O)c2cn(-c3ccc(N)cc3)cc2-c2ccccc2[N+](=O)[O-])cc(OC)c1OC readoutnumber=69

(a) COc1cc(C(=O)c2cn(-c3cc(OC)c(OC)c(OC)c3)cc2-c2ccccc2)cc(OC)c1OC
(b) COc1cc(C(=O)c2cn(-c3cccc(C)c3)cc2-c2ccccc2Cl)cc(OC)c1OC
Req: Between a and b , which one shows the larger inhibition value? Returns: label corresponding to the selected item.
Resp: b

(P) COc1cc(C(=O)c2cn(-c3ccccc3)cc2-c2ccccc2[N+](=O)[O-])cc(OC)c1OC
(Q) COc1cc(C(=O)c2cn(-c3cccc(F)c3)cc2-c2ccccc2[N+](=O)[O-])cc(OC)c1OC
Req: # argmax over inhibition for candidates P and Q Refer to your chosen entry by its label in the reply.
Resp: P

* * *

molecular target: Tubulin; test: Inhibition of tubulin polymerization (unknown origin) incubated for 15 mins followed by GTP addition and measured for 20 mins by spectrophotometry
pIC50: −log10 of the molar value.
endpoint: pIC50

structureassmiles=COc1cc(C(=O)c2cn(-c3ccc(N)cc3)cc2-c2cccc([N+](=O)[O-])c2)cc(OC)c1OC readoutnumber=5.42
structureassmiles=COc1cc(C(=O)c2cn(-c3ccccc3)cc2-c2c(F)cc(F)cc2F)cc(OC)c1OC readoutnumber=6.29
structureassmiles=COc1cc(C(=O)c2cn(-c3cccc(N)c3)cc2-c2cccc([N+](=O)[O-])c2)cc(OC)c1OC readoutnumber=5.77
structureassmiles=COc1cc(C(=O)c2cn(-c3ccc(C)cc3)cc2-c2ccc([N+](=O)[O-])cc2)cc(OC)c1OC readoutnumber=6.19
structureassmiles=COc1cc(C(=O)c2cn(-c3cccc(N)c3)cc2-c2cccc(N)c2)cc(OC)c1OC readoutnumber=6.06

(A) COc1cc(C(=O)c2cn(-c3ccccc3)cc2-c2cccc([N+](=O)[O-])c2)cc(OC)c1OC
(B) COc1cc(C(=O)c2cn(-c3ccc([N+](=O)[O-])cc3)cc2-c2ccccc2)cc(OC)c1OC
Req: Between A and B , which one has the lower reported pIC50 value? Pick one; state its label.
Resp: B

The measured values listed here are drawn from ChEMBL document CHEMBL4312029.
